Value source: ChEMBL document CHEMBL5244230

Task for the reader: assign each of the following compounds its reported pIC50.
test system: P388/ADR; assay: Antiproliferative activity against mouse P388/ADR cells assessed as reduction in cell viability measured after 72 hrs; type: functional, cell-based; conditions: 72 h
Answers are plain numbers, as −log10 of the molar value.

**Query** What pIC50 appears in the records for this compound with P388/ADR? C[C@H]1[C@@H](Oc2ccc(Cn3ccnn3)cc2)O[C@@H]2O[C@@]3(C)CC[C@H]4[C@H](C)CC[C@@H]1[C@@]24OO3
**Result** 5.54

Please report pIC50 for every entry that follows.
1. C[C@H]1[C@@H](Oc2ccc(CCn3ccnn3)cc2)O[C@@H]2O[C@@]3(C)CC[C@H]4[C@H](C)CC[C@@H]1[C@@]24OO3
2. C[C@H]1[C@@H](O)O[C@@H]2O[C@@]3(C)CC[C@H]4[C@H](C)CC[C@@H]1[C@@]24OO3

**Result**
[5.54, 4.68]

---

system: MDA-MB-231; assay: Antiproliferative activity against human MDA-MB-231 cells; assay type: functional, cell-based; conditions: Homo sapiens, MDA-MB-231
Task for the reader: assign each of the following compounds its reported IC50.
Mention the unit after the number when you answer.

Below, 3 compounds whose answers are already recorded.
**Query** Query (compound): C[C@H]1[C@H](OCCOc2cccc(/C=C/S(=O)(=O)Nc3ccccc3)c2)O[C@@H]2O[C@@]3(C)CC[C@H]4[C@H](C)CC[C@@H]1[C@@]24OO3 ; field requested: IC50
**Result** 0.05 µM

**Query** Query (compound): CC(=O)c1ccccc1-n1cc(CO[C@H]2O[C@@H]3O[C@]4(C)OO[C@]35[C@@H](CC[C@@H](C)[C@@H]5C[C@H]4O)[C@H]2C)nn1 ; field requested: IC50
**Result** 25.3 µM

**Query** Query (compound): C[C@H]1[C@@H](OCc2cn(-c3ccccc3C(=O)/C=C/c3ccccc3C(F)(F)F)nn2)O[C@@H]2O[C@@]3(C)CC[C@H]4[C@H](C)CC[C@@H]1[C@@]24OO3 ; field requested: IC50
**Result** 4.06 µM

Next:
**Query** Query (compound): C[C@H]1[C@H](OCCOc2cccc(/C=C/S(=O)(=O)Nc3cccc(Cl)c3)c2)O[C@@H]2O[C@@]3(C)CC[C@H]4[C@H](C)CC[C@@H]1[C@@]24OO3 ; field requested: IC50
**Result** 0.05 µM

---

test system: HeLa; test: Antiproliferative activity against human HeLa cells assessed as reduction in cell viability; format: functional, cell-based
measured_endpoint: IC50
Mention the unit after the number when you answer.

Below, 2 compounds whose answers are already recorded.
**Query** What IC50 appears in the records for this compound with HeLa? C[C@H]1[C@@H](CC(COP(=O)(Oc2ccccc2)Oc2ccccc2)C[C@H]2O[C@@H]3O[C@]4(C)CC[C@H]5[C@H](C)CC[C@@H]([C@H]2C)[C@@]35OO4)O[C@@H]2O[C@@]3(C)CC[C@H]4[C@H](C)CC[C@@H]1[C@@]24OO3 (stereo not given in full)
**Result** 0.04 µM

**Query** What IC50 appears in the records for this compound with HeLa? C[C@H]1[C@@H](CC(COP(=O)(O)Oc2ccccc2)C[C@H]2O[C@@H]3O[C@]4(C)CC[C@H]5[C@H](C)CC[C@@H]([C@H]2C)[C@@]35OO4)O[C@@H]2O[C@@]3(C)CC[C@H]4[C@H](C)CC[C@@H]1[C@@]24OO3 (stereo not given in full)
**Result** 0.04 µM

Please report IC50 for every entry that follows.
1. C[C@H]1[C@@H](CCCOP(=O)(O)Oc2ccccc2)O[C@@H]2O[C@@]3(C)CC[C@H]4[C@H](C)CC[C@@H]1[C@@]24OO3
2. C[C@H]1[C@H](OC(=O)CCC(=O)O)O[C@@H]2O[C@@]3(C)CC[C@H]4[C@H](C)CC[C@@H]1[C@@]24OO3 [ARTESUNATE]
3. C[C@H]1[C@@H](CCCOP(=O)(Oc2ccccc2)Oc2ccccc2)O[C@@H]2O[C@@]3(C)CC[C@H]4[C@H](C)CC[C@@H]1[C@@]24OO3

**Result**
1: 3.82 µM; 2: 11.3 µM; 3: 3.82 µM

---

system: B16; experiment: Cytotoxicity against mouse B16 cells assessed as cell growth inhibition measured after 48 hrs by MTT assay; type: functional
measured_endpoint: GI50 (nM)
Answers are plain numbers, in nM.

Below, 8 molecules whose answers are already recorded.
**Query** Query (molecule): Cc1ccc(-c2cnnn2[C@@H]2O[C@@H]3O[C@@]4(C)CC[C@H]5[C@H](C)CC[C@@H]([C@H]2C)[C@@]35OO4)cc1 ; field requested: GI50
**Result** 40

**Query** Query (molecule): C[C@H]1[C@H](n2nncc2-c2cc(F)cc(F)c2)O[C@@H]2O[C@@]3(C)CC[C@H]4[C@H](C)CC[C@@H]1[C@@]24OO3 ; field requested: GI50
**Result** 40

**Query** Query (molecule): C[C@H]1[C@H](n2cc(-c3ccccc3)nn2)O[C@@H]2O[C@@]3(C)CC[C@H]4[C@H](C)CC[C@@H]1[C@@]24OO3 ; field requested: GI50
**Result** 50

**Query** Query (molecule): C[C@H]1[C@H](n2cc(-c3ccccc3C(F)(F)F)nn2)O[C@@H]2O[C@@]3(C)CC[C@H]4[C@H](C)CC[C@@H]1[C@@]24OO3 ; field requested: GI50
**Result** 50

**Query** Query (molecule): C[C@H]1[C@H](n2nncc2-c2ccccc2C(F)(F)F)O[C@@H]2O[C@@]3(C)CC[C@H]4[C@H](C)CC[C@@H]1[C@@]24OO3 ; field requested: GI50
**Result** 40

**Query** Query (molecule): C[C@@H]1[C@@H](n2cc(-c3ccccc3)nn2)O[C@@H]2O[C@@]3(C)CC[C@H]4[C@H](C)CC[C@@H]1[C@@]24OO3 ; field requested: GI50
**Result** 30

**Query** Query (molecule): C[C@H]1[C@H](n2nncc2-c2ccc(Cl)cc2)O[C@@H]2O[C@@]3(C)CC[C@H]4[C@H](C)CC[C@@H]1[C@@]24OO3 ; field requested: GI50
**Result** 40

**Query** Query (molecule): Cc1ccc(-c2cn([C@H]3O[C@@H]4O[C@@]5(C)CC[C@H]6[C@H](C)CC[C@@H]([C@@H]3C)[C@@]46OO5)nn2)cc1 ; field requested: GI50
**Result** 30

Please report GI50 for every entry that follows.
1. COc1ccc(-c2cn([C@@H]3O[C@@H]4O[C@@]5(C)CC[C@H]6[C@H](C)CC[C@@H]([C@H]3C)[C@@]46OO5)nn2)cc1
2. C[C@@H]1[C@@H](n2cc(-c3ccccc3C(F)(F)F)nn2)O[C@@H]2O[C@@]3(C)CC[C@H]4[C@H](C)CC[C@@H]1[C@@]24OO3
3. C[C@@H]1CC[C@H]2[C@@H](C)C(n3cc(-c4ccc(F)cc4)nn3)O[C@@H]3O[C@@]4(C)CC[C@@H]1[C@]32OO4 (stereo partly specified)

**Result**
1: 50; 2: 30; 3: 50

Please report GI50 for every entry that follows.
1. Cc1ccc(-c2cn(C3O[C@@H]4O[C@@]5(C)CC[C@H]6[C@H](C)CC[C@@H]([C@H]3C)[C@@]46OO5)nn2)cc1 (stereo partly specified)
2. C[C@@H]1CC[C@H]2[C@@H](C)C(n3cc(-c4cccc(Cl)c4)nn3)O[C@@H]3O[C@@]4(C)CC[C@@H]1[C@]32OO4 (stereo partly specified)
3. C[C@H]1[C@H](n2nncc2-c2ccc(F)cc2)O[C@@H]2O[C@@]3(C)CC[C@H]4[C@H](C)CC[C@@H]1[C@@]24OO3
4. CCCCCc1ccc(-c2cn([C@@H]3O[C@@H]4O[C@@]5(C)CC[C@H]6[C@H](C)CC[C@@H]([C@H]3C)[C@@]46OO5)nn2)cc1
5. C[C@H]1[C@@H](n2cc(-c3ccccc3)nn2)O[C@@H]2O[C@@]3(C)CC[C@H]4[C@H](C)CC[C@@H]1[C@@]24OO3

**Result**
1. 50
2. 50
3. 40
4. 50
5. 130

Please report GI50 for every entry that follows.
1. COc1ccc(-c2cn([C@H]3O[C@@H]4O[C@@]5(C)CC[C@H]6[C@H](C)CC[C@@H]([C@@H]3C)[C@@]46OO5)nn2)cc1
2. C[C@H]1[C@H](n2cc(-c3cc(F)cc(F)c3)nn2)O[C@@H]2O[C@@]3(C)CC[C@H]4[C@H](C)CC[C@@H]1[C@@]24OO3
3. CCCCCc1ccc(-c2cnnn2[C@@H]2O[C@@H]3O[C@@]4(C)CC[C@H]5[C@H](C)CC[C@@H]([C@H]2C)[C@@]35OO4)cc1
4. C[C@H]1[C@H](n2nncc2-c2ccccc2)O[C@@H]2O[C@@]3(C)CC[C@H]4[C@H](C)CC[C@@H]1[C@@]24OO3
5. C[C@@H]1[C@@H](n2cc(-c3cccc(Cl)c3)nn2)O[C@@H]2O[C@@]3(C)CC[C@H]4[C@H](C)CC[C@@H]1[C@@]24OO3
6. C[C@@H]1[C@@H](n2cc(-c3cc(F)cc(F)c3)nn2)O[C@@H]2O[C@@]3(C)CC[C@H]4[C@H](C)CC[C@@H]1[C@@]24OO3
7. CC(=O)O[C@H]1C(=O)[C@@]2(C)[C@H]([C@H](OC(=O)c3ccccc3)[C@]3(O)C[C@H](OC(=O)[C@H](O)[C@@H](NC(=O)c4ccccc4)c4ccccc4)C(C)=C1C3(C)C)[C@]1(OC(C)=O)CO[C@@H]1C[C@@H]2O

**Result**
1: 30; 2: 50; 3: 40; 4: 40; 5: 30; 6: 30; 7: 10
